pIC50 by entry:
experiment-summary: Inhibition of chymotrypsin-like activity of 20S proteasome using suc-LLVY-AMC as substrate preincubated for 10 mins before substrate addition at pH 7.6 by fluorescence assay
Please keep in mind that pIC50 is minus log10 of the molar concentration; only the number is needed.

# smiles-str, numeric-result
records = [
    ("CC(C)C[C@H](NC(=O)[C@@H](N)CC(N)=O)B(O)O", 6.11),
]

Given item CC(C)C[C@H](NC(=O)[C@@H](N)Cc1ccc(-c2ccccc2)cc1)B(O)O , the value recorded as its pIC50 is 6.40

So, CC(C)C[C@H](NC(=O)[C@@H](N)C(c1ccccc1)c1ccccc1)B(O)O ? Its pIC50 was 6.46

###

experiment-summary: Inhibition of chymotrypsin-like activity of 20S proteasome using suc-LLVY-AMC as substrate preincubated for 10 mins before substrate addition at pH 7.6 by fluorescence assay
Measured IC50, listed per entry.
# value in nM; strip the unit string

Recorded results for 5 molecules are shown here.
# smiles-str, IC50 / nM
data = [
    ("CC(C)C[C@H](NC(=O)[C@@H](N)CC(C)C)B(O)O", 170),
    ("CC(C)C[C@H](NC(=O)[C@H](C)N)B(O)O", 360),
    ("CC(C)C[C@H](NC(=O)[C@@H](N)Cc1c[nH]c2ccccc12)B(O)O", 100),
    ("CC(C)C[C@H](NC(=O)[C@@H](NC(=O)c1cnccn1)[C@@H](C)O)B(O)O", 25),
    ("CC(C)C[C@H](NC(=O)[C@@H](N)Cc1cc(F)cc(F)c1)B(O)O", 100),
]

# IC50 (molecule: CC(C)C[C@H](NC(=O)[C@@H](N)CC(C(=O)O)C(=O)O)B(O)O ) is 3000

###

The compounds listed here are annotated with their IC50.
experiment-summary: Inhibition of chymotrypsin-like activity of 20S proteasome using suc-LLVY-AMC as substrate preincubated for 10 mins before substrate addition at pH 7.6 by fluorescence assay
Express the result in nM but write the number alone.

# smiles-str, reading-unit, IC50
records = [
    ("CC(C)C[C@H](NC(=O)[C@@H](N)C(C)(C)O)B(O)O", "nM", 150),
    ("CC(C)C[C@H](NC(=O)CN(C)C)B(O)O", "nM", 610),
    ("CC(C)C[C@H](NC(=O)[C@@H](N)[C@@H](C)O)B(O)O", "nM", 450),
]

Just so you know, measured IC50 for CC(C)C[C@H](NC(=O)[C@@H](N)Cc1cccc(F)c1)B(O)O came out at 110

Input CC(C)C[C@H](NC(=O)CNC(=O)c1cnccn1)B(O)O . Output IC50: 180

Sample CNCC(=O)N[C@@H](CC(C)C)B(O)O ; IC50 observed: 2200

# IC50 of CC(C)C[C@H](NC(=O)CN)B(O)O = 430

IC50 reported for this compound CC(C)C[C@H](NC(=O)[C@@H](N)Cc1cnc[nH]1)B(O)O : 5200

IC50 reported for this compound CC(C)C[C@H](NC(=O)[C@@H](N)C1CCCCC1)B(O)O : 900

Query CC(C)C[C@H](NC(=O)[C@@H](N)Cc1cccc2ccccc12)B(O)O yields IC50 of 120

// IC50 value for CC(C)C[C@H](NC(=O)[C@@H](N)Cc1c(F)c(F)c(F)c(F)c1F)B(O)O : 470

Quick note, IC50 for CC(C)C[C@H](NC(=O)[C@@H](N)CO)B(O)O landed at 1100

Looking up CC(C)C[C@H](NC(=O)[C@H](CO)NC(=O)c1cnccn1)B(O)O , I see its IC50 listed as 18

Reported IC50 for CC(C)C[C@H](NC(=O)[C@@H](N)Cc1ccc(F)cc1)B(O)O was 130

IC50 measured on CC(C)C[C@H](NC(=O)[C@@H](N)Cc1ccc2ccccc2c1)B(O)O = 220

Per the records, this compound ( CCCC[C@H](N)C(=O)N[C@@H](CC(C)C)B(O)O ) has IC50 equal to 300

For record CCC[C@H](N)C(=O)N[C@@H](CC(C)C)B(O)O the listed IC50 is 540

Short answer for CC(C)C[C@H](NC(=O)[C@@H](N)Cc1ccccc1)B(O)O : IC50 was 140

Hey, just so you know, these numbers are from ChEMBL document CHEMBL1811907.
